Taken from patent US20260028364A1.

Test system: U87MG
ASSAY COMMENT: CellTiter-Glo cell viability, U87MG
Format: cell-based
EXPERIMENTAL PARAMETERS: U87MG cells, 72 h with compound

ENTRY SMILES: COc1ccc2c(=O)c(-c3ccc(CCCCCC[P+](c4ccccc4)(c4ccccc4)c4ccccc4)cc3)coc2c1OC.[Cl-]
IC50 / nM: 320

ENTRY SMILES: COc1ccc2c(=O)c(-c3ccc(CCCCCCCC[P+](c4ccccc4)(c4ccccc4)c4ccccc4)cc3)coc2c1OC
IC50 / nM: 390

ENTRY SMILES: COc1ccc2c(=O)c(-c3ccc(CCCCCCCCCC[P+](c4ccccc4)(c4ccccc4)c4ccccc4)cc3)coc2c1OC.[Cl-]
IC50 / nM: 240
